- System Name: 5-LOX (Homo sapiens)
- Sequence (P09917 whole entry): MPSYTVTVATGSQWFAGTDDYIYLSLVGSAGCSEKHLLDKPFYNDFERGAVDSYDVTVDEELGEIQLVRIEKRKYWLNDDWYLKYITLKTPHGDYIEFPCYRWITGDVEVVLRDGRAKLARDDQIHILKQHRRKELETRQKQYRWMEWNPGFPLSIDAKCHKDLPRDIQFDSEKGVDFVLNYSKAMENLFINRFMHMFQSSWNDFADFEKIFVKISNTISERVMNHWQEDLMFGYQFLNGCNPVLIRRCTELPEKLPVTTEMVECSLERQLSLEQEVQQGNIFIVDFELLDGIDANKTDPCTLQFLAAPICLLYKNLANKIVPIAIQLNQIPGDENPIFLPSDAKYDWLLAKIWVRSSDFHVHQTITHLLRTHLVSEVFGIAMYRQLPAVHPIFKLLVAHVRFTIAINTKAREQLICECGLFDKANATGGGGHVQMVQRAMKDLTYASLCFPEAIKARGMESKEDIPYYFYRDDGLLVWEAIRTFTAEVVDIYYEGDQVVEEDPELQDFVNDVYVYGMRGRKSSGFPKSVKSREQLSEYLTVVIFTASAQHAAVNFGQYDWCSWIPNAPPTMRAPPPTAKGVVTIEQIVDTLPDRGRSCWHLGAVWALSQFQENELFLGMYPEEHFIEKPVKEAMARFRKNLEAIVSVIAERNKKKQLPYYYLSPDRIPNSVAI
- Experiment Notes: 5-LOX product formation in human activated PMNL (A23187)
- Format: cell-based
- Design: Freshly isolated PMNL (5 × 10^6) suspended in PBS pH 7.4 with 1 mg/mL glucose were preincubated with the test compounds; endogenous in cells; host or cells: human PMNL from donor blood
- Condition Description: 10 μM; human activated PMNL; read-out: 5-LOX residual activity in PMNL (%) at 10 μM
- From the text: Human PMNL were freshly isolated from leukocyte concentrates that were obtained from the Institute for Transfusion Medicine of the University Hospital Jena (Germany). […] These volunteers regularly donated blood (every 8–12 weeks) and were physically inspected by a clinician. […] Major 5-LOX products (all-trans isomers of LTB and 5-HETE, and additionally LTB4) were extracted and analyzed by RP-HPLC as described for the determination of cell-free 5-LOX activity.
Quantity Name: remaining activity at 10 µM (%)

>  <Compound Smiles>
CN1CCCN(CCNC(=O)Nc2ccc3c(c2)CCN3Cc2ccc(F)cc2)CC1

>  <Units Symbol>
%

>  <Value Reported>
71.1

$$$$
>  <Compound Smiles>
O=C(O)CCCn1ccc2cc(NC(=O)NCC34C[C@H]5C[C@@H](C3)C[C@@H](C4)C5)ccc21

>  <Units Symbol>
%

>  <Value Reported>
41.2

$$$$
>  <Compound Smiles>
O=C(NCC12C[C@H]3C[C@@H](C1)C[C@@H](C2)C3)Nc1ccc2c(ccn2Cc2ccc(F)cc2)c1

>  <Units Symbol>
%

>  <Value Reported>
59.4

$$$$
>  <Compound Smiles>
CC(C)c1ccc(Cn2ccc3cc(NC(=O)NCC45C[C@H]6C[C@@H](C4)C[C@@H](C5)C6)ccc32)cc1

>  <Units Symbol>
%

>  <Value Reported>
93.6

$$$$
>  <Compound Smiles>
O=C(NCC12C[C@H]3C[C@@H](C1)C[C@@H](C2)C3)Nc1ccc2c(c1)CCN2Cc1ccc(C(=O)O)cc1

>  <Units Symbol>
%

>  <Value Reported>
57.7

$$$$

Every entry's value here was drawn from paper PMC10350924.
